Read-out: CYP2C8 (gene 1558)
ASSAY_REMARKS: LTEA_HepaRG_CYP2C8: Life Technologies and Expression Analysis (LTEA) Assay for CYP2C8 using HepaRG (AID 2283483)
CONDITION_DESCRIPTION: mRNA level, 48 h; actives raise or lower the signal
The source made the active and inactive calls. Rule for the calls: active = hit-call score of the fitted dose curve at least 0.9, where 1 is the maximum; inactive = score below 0.9.
Outcome codes: TRUE for active, FALSE for inactive

{"columns": ["COMPOUND", "GROUP"],
 "data": [
  ["CCN(C(=O)c1cc(C)cc(OC[C@H](C)Nc2ccncc2)c1)C(C)C", "TRUE"],
  ["CC(C)=CCCC(C)CCO (centres undefined)", "FALSE"],
  ["COC(=O)c1c(Cl)c(Cl)c(C(=O)OC)c(Cl)c1Cl", "FALSE"],
  ["CCCCC(CC)COC(=O)c1ccc(C(=O)OCC(CC)CCCC)cc1 (centres undefined)", "FALSE"],
  ["CCCN(C1CCN(C(=O)C2CCNCC2)CC1)[C@@H]1CCc2ccc(OC)cc2C1", "TRUE"],
  ["C=CC(=C)CCC=C(C)C", "FALSE"],
  ["COc1cccc(-c2ccc(/C=C\\CN3CCCCCC3)cc2Cl)c1", "TRUE"],
  ["Cc1c(-c2cccnc2)c2ccccc2n1CCCCC(=O)O", "FALSE"],
  ["Cn1cnc([N+](=O)[O-])c1Sc1ncnc2nc[nH]c12", "TRUE"],
  ["CN(C)c1ccc(Cc2ccc(N(C)C)cc2)cc1", "TRUE"],
  ["Nc1nc2ncc(CNc3ccc(C(=O)N[C@@H](CCC(=O)O)C(=O)O)cc3)nc2c(=O)[nH]1", "FALSE"],
  ["CCCCCCCCCCCCc1ccccc1", "FALSE"],
  ["CCc1cc(SCc2sc(-c3ccc(C(F)(F)F)cc3)nc2CN2CCN(c3ccc(OC)cc3)CC2)ccc1OCC(=O)O", "FALSE"],
  ["CCOC(=O)c1ccc(C2CCC(NC[C@H](O)COc3ccc(O)c(NS(C)(=O)=O)c3)CC2)cc1 (some centres undefined)", "FALSE"]
]}

====

ASSAY_REMARKS: APR_HepG2_MitoticArrest_72hr: Apredica 72-hour HepG2 Assay for Mitotic Arrest (AID 2282918)
CONDITION_DESCRIPTION: high-content imaging, actives raise or lower the signal
Activity calls are given as the source filed them. The calls were made as follows: active = hit-call score of the fitted dose curve at least 0.9, where 1 is the maximum; inactive = score below 0.9.
Possible outcomes: 1.0 for active, 0.0 for inactive

{"columns": ["COMPOUND", "GROUP"],
 "data": [
  ["Nc1cccc(N)c1", 0.0],
  ["CCCCCCCCCCCCc1ccccc1", 0.0],
  ["O=C(O)c1cccc(N(Cc2cccnc2)c2ccc(OC(F)F)c(OC(F)F)c2)c1", 1.0],
  ["Cc1ccc(O)cc1", 0.0],
  ["CC1=CC(=O)CC(C)(C)C1", 0.0],
  ["CC(=O)OCCC(C)C", 0.0],
  ["CCOC(=O)c1ccc(C2CCC(NC[C@H](O)COc3ccc(O)c(NS(C)(=O)=O)c3)CC2)cc1 (stereo partly drawn)", 1.0],
  ["CCC(C)(C)C(=O)O[C@H]1C[C@@H](C)C=C2C=C[C@H](C)[C@H](CC[C@@H]3C[C@@H](O)CC(=O)O3)[C@H]21", 1.0]
]}

====

Read-out: Pyruvate Dehydrogenase Kinase 4 (PDK4), PDK4 (gene 5166)
ASSAY_REMARKS: LTEA_HepaRG_PDK4: Life Technologies and Expression Analysis (LTEA) Assay for Pyruvate Dehydrogenase Kinase 4 (PDK4) using HepaRG (AID 2283525)
CONDITION_DESCRIPTION: mRNA level, 48 h; actives raise or lower the signal
The source made the active and inactive calls. How the source made its calls: active means hit-call score of the fitted dose curve at least 0.9, where 1 is the maximum; inactive means score below 0.9.
Classes used: active, inactive

{"columns": ["COMPOUND", "GROUP"],
 "data": [
  ["Cc1[nH]cnc1C[C@H]1CCc2c(C)c3ccccc3n2C1=O", "active"],
  ["CCCCC(CC)COC(=O)c1ccc(C(=O)OCC(CC)CCCC)cc1 (stereo unspecified)", "inactive"],
  ["CC[C@H]1CC[C@H](NCc2cc3c(cc2OC)[C@H]2C[C@H]2C(=O)N3C)[C@H](c2ccccc2)N1", "inactive"],
  ["Cc1ccc(N)cc1O", "inactive"],
  ["COc1ccc2sc(C(=O)Nc3nnn[nH]3)c(OC(C)C)c2c1", "active"],
  ["Cc1ccc(S(=O)(=O)O)cc1C", "inactive"],
  ["COc1ccc(-n2nc(C(F)F)cc2-c2ccc(S(C)=O)cc2)cc1 (stereo unspecified)", "inactive"],
  ["CC[C@H](C)C(=O)O[C@H]1C[C@@H](C)C=C2C=C[C@H](C)[C@H](CC[C@@H]3C[C@@H](O)CC(=O)O3)[C@H]21", "active"],
  ["O=C(CCCCCCCCc1cccnc1)N1CCC(C=C(c2ccccc2)c2ccccc2)CC1", "active"],
  ["CC(C)(O)c1coc(S(=O)(=O)NC(=O)Nc2c3c(cc4c2CCC4)CCC3)c1", "inactive"],
  ["CC(C)=CCC/C(C)=C\\CO", "inactive"],
  ["NC(=O)NO", "inactive"],
  ["Nc1nc2ncc(CNc3ccc(C(=O)N[C@@H](CCC(=O)O)C(=O)O)cc3)nc2c(=O)[nH]1", "inactive"],
  ["CCCC(=O)OCC", "inactive"],
  ["CC(O)CN(CCN(CC(C)O)CC(C)O)CC(C)O (stereo unspecified)", "inactive"],
  ["CC(C)=CCC/C(C)=C/CO", "inactive"],
  ["COc1ccc(/C=C/S(=O)(=O)NC(=O)c2ccc(C)cc2Cl)cc1", "active"],
  ["C1=CCCC=CCCC=CCC1", "inactive"],
  ["CC(C)CCCCCCCOC(=O)CCCCC(=O)OCCCCCCCC(C)C", "inactive"],
  ["CCOC(=O)c1ccc(C2CCC(NC[C@H](O)COc3ccc(O)c(NS(C)(=O)=O)c3)CC2)cc1 (stereo partly specified)", "inactive"],
  ["CC(C)=CCCC(C)CCO (stereo unspecified)", "inactive"],
  ["Fc1ccccc1[C@@H](F)COC1CCC(Nc2ncnc3[nH]ncc23)CC1 (stereo partly specified)", "active"],
  ["CCN(C(=O)c1cc(C)cc(OC[C@H](C)Nc2ccncc2)c1)C(C)C", "active"],
  ["Cn1cnc([N+](=O)[O-])c1Sc1ncnc2nc[nH]c12", "active"],
  ["Nc1ccc(Nc2ccccc2)cc1", "inactive"],
  ["CCOC(=O)COc1ccc2c(c1)CC(NCC(O)c1cccc(Cl)c1)CC2 (stereo unspecified)", "inactive"]
]}

====

ASSAY_REMARKS: APR_HepG2_CellLoss_24hr: Apredica 24-hour HepG2 Assay for Cell Loss (AID 2282908)
CONDITION_DESCRIPTION: high-content imaging
Activity calls are given as the source filed them. Rule for the calls: active = hit-call score of the fitted dose curve at least 0.9, where 1 is the maximum; inactive = score below 0.9.
Possible outcomes: 1 for active, 0 for inactive

{"columns": ["MOLECULE", "GROUP"],
 "data": [
  ["CCCCC(CC)COC(=O)CCCCCCCCC(=O)OCC(CC)CCCC (centres undefined)", 1],
  ["CCCC(=O)OCC", 0],
  ["CC1(C)C(=O)N(Br)C(=O)N1Br", 0],
  ["CCCN(C1CCN(C(=O)C2CCNCC2)CC1)[C@@H]1CCc2ccc(OC)cc2C1", 1],
  ["COC(=O)CC(=O)OC", 0],
  ["Nc1cccc(N)c1", 0],
  ["COc1ccc(/C=C/S(=O)(=O)NC(=O)c2ccc(C)cc2Cl)cc1", 0],
  ["Cc1ccc(N)cc1O", 0],
  ["CCn1nc(Cc2ccccc2)cc1C1CCN(C[C@H]2C[C@H](N(C)[C@@H](C(=O)O)C(C)C)C[C@@H]2c2cccc(F)c2)CC1", 0],
  ["Nc1nc2ncc(CNc3ccc(C(=O)N[C@@H](CCC(=O)O)C(=O)O)cc3)nc2c(=O)[nH]1", 0],
  ["CC(C)c1cccc(C(C)C)c1N1C(=O)c2ccc(O)cc2C1=O", 1],
  ["CN(C)c1ccc(N=NS(=O)(=O)O)cc1", 0],
  ["COc1ccc2sc(C(=O)Nc3nnn[nH]3)c(OC(C)C)c2c1", 0],
  ["C[C@](N)(Cc1ccc(O)c(O)c1)C(=O)O", 0]
]}

====

ASSAY_REMARKS: APR_HepG2_p53Act_72hr: Apredica 72-hour HepG2 Assay for p53 Activation (AID 2282923);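 note: average cellular p53 protein immunofluorescence intensity in HepG2 cells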
CONDITION_DESCRIPTION: high-content imaging, actives raise or lower the signal
Activity calls are given as the source filed them. The calls were made as follows: active = hit-call score of the fitted dose curve at least 0.9, where 1 is the maximum; inactive = score below 0.9.
MEASURED_PARAMETER: AC50

{"columns": ["COMPOUND", "OBSERVED"],
 "data": [
  ["COCCOCCOCCOC", "inactive"],
  ["CC(=O)c1ccc2c(c1)[C@H](NC(=O)c1ccc(F)cc1)[C@@H](O)C(C)(C)O2", "inactive"],
  ["CC(=O)OC[C@H]1O[C@@](COC(C)=O)(O[C@H]2O[C@H](COC(C)=O)[C@@H](OC(C)=O)[C@H](OC(C)=O)[C@H]2OC(C)=O)[C@@H](OC(C)=O)[C@@H]1OC(C)=O", "inactive"],
  ["CCCN(C1CCN(C(=O)C2CCNCC2)CC1)[C@@H]1CCc2ccc(OC)cc2C1", "68.9 µM (active)"],
  ["CCOC(=O)CC(CC(=O)OCC)(OC(C)=O)C(=O)OCC", "inactive"],
  ["CC(C)c1cccc(C(C)C)c1N1C(=O)c2ccc(O)cc2C1=O", "3.01 µM (active)"],
  ["CC(C)CCCCCCCOC(=O)CCCCC(=O)OCCCCCCCC(C)C", "inactive"],
  ["O=C1CCC(N2C(=O)c3ccccc3C2=O)C(=O)N1 (configuration not stated)", "inactive"],
  ["Clc1nc(Cl)c(Cl)c(Cl)c1Cl", "25 µM (active)"],
  ["Cn1c(=O)c2c(ncn2C)n(C)c1=O", "inactive"],
  ["CC(C)=CCC/C(C)=C\\CO", "inactive"],
  ["CCC(C)(C)C(=O)O[C@H]1C[C@@H](C)C=C2C=C[C@H](C)[C@H](CC[C@@H]3C[C@@H](O)CC(=O)O3)[C@H]21", "29.6 µM (active)"]
]}
